We begin with a simple list: items and their reported log Kb.
test system: 22AG (DNA, G4) AGGGTTAGGGTTAGGGTTAGGG; assay: photometric titration (Specfit); conditions: K+ (25 mM K2HPO4, 70 mM KCl); K-phosphate pH 7.0, DMSO cosolvent (10% in legend, 5% in methods)

COc1ccc2cc3[n+](cc2c1OCCCCCn1cc(Cn2cnc4c(N)ncnc42)nn1)CCc1cc2c(cc1-3)OCO2 | 5.09 ± 0.13 log (K in M^-1)
COc1ccc2cc3[n+](cc2c1OCCn1cc(Cn2cnc4c(N)ncnc42)nn1)CCc1cc2c(cc1-3)OCO2 | 5.89 ± 0.07 log (K in M^-1)
COc1ccc2cc3[n+](cc2c1OCCCCn1cc(Cn2cnc4c(N)ncnc42)nn1)CCc1cc2c(cc1-3)OCO2 | 5.23 ± 0.09 log (K in M^-1)

Here is another molecule to look at.
Q. Quick check: log Kb on 22AG (DNA, G4) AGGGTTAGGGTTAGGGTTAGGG, item `COc1ccc2cc3[n+](cc2c1OCCCn1cc(Cn2cnc4c(N)ncnc42)nn1)CCc1cc2c(cc1-3)OCO2` ?
A. 5.64 ± 0.15 log (K in M^-1)

* * *

We begin with a simple list: items and their reported log Kb.
test system: a2 (DNA, G4) ACAGGGGTGTGGGGACAGGGGTGTGGGG; assay: photometric titration (Specfit); details: K+ (25 mM K2HPO4, 70 mM KCl); K-phosphate pH 7.0, DMSO cosolvent (10% in legend, 5% in methods); overall 2:1 constant

Examples with their reported log Kb follow.
COc1ccc2cc3[n+](cc2c1OCCCCCCn1cc(Cn2cnc4c(N)ncnc42)nn1)CCc1cc2c(cc1-3)OCO2 | 11.1 ± 0.1 log (K in M^-2)
COc1ccc2cc3[n+](cc2c1OCCn1cc(Cn2cnc4c(N)ncnc42)nn1)CCc1cc2c(cc1-3)OCO2 | 10.3 ± 0.1 log (K in M^-2)
COc1ccc2cc3[n+](cc2c1OCCCn1cc(Cn2cnc4c(N)ncnc42)nn1)CCc1cc2c(cc1-3)OCO2 | 10.6 ± 0.2 log (K in M^-2)
COc1ccc2cc3[n+](cc2c1OCCCCCn1cc(Cn2cnc4c(N)ncnc42)nn1)CCc1cc2c(cc1-3)OCO2 | 11.1 ± 0.2 log (K in M^-2)

Q. Data request, read-out log Kb, for `COc1ccc2cc3[n+](cc2c1OCCCCn1cc(Cn2cnc4c(N)ncnc42)nn1)CCc1cc2c(cc1-3)OCO2`
A. 10.6 ± 0.3 log (K in M^-2)

* * *

tested on: F21T (DNA, G4) GGGTTAGGGTTAGGGTTAGGG; assay: FRET melting; details: K+ 10 mM (KCl), Na+ 10 mM (cacodylate), Li+ 90 µM [sic]; Na-cacodylate pH 7.2; DNA 0.2 µM, LDR 5 (1 µM ligand); error ± 0.5 °C
We begin with a simple list: items and their reported ΔTm.
Please state the figure in °C; there is no need to write the unit.

Examples with their reported ΔTm follow.
COc1ccc2cc3[n+](cc2c1OCCCCCn1cc(Cn2cnc4c(N)ncnc42)nn1)CCc1cc2c(cc1-3)OCO2 | 9.9
COc1ccc2cc3[n+](cc2c1OCCCn1cc(Cn2cnc4c(N)ncnc42)nn1)CCc1cc2c(cc1-3)OCO2 | 6.2
COc1ccc2cc3[n+](cc2c1OCCCCCCn1cc(Cn2cnc4c(N)ncnc42)nn1)CCc1cc2c(cc1-3)OCO2 | 12.9
COc1ccc2cc3[n+](cc2c1OCCn1cc(Cn2cnc4c(N)ncnc42)nn1)CCc1cc2c(cc1-3)OCO2 | 3.4

Here is another compound to look at.
Q. Data request, read-out ΔTm, for `COc1ccc2cc3[n+](cc2c1OCCCCn1cc(Cn2cnc4c(N)ncnc42)nn1)CCc1cc2c(cc1-3)OCO2`
A. 6.4
